Provenance of the data: the supplement of paper PMC10567573

B1: PHTF1 (parent)
chain: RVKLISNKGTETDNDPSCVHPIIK

# Variants of: B1
# test_protocol: protein stability index of a GFP-peptide fusion (GPS, HEK-293T) (PSI 1-6); higher = more stable;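 further: lentivirally expressed fusions sorted by FACS into six bins by GFP to DsRed ratio, PSI derived from sequencing read proportions per bin multiplied by bin number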
# run_conditions: c terminus: a fixed tail appended
Recorded protein stability index for the following variants

- mutation_id: "C18P"
  protein stability index: 4.03
- mutation_id: "S6T"
  protein stability index: 3.95
- mutation_id: "I23F"
  protein stability index: 4.02
- mutation_id: "P16Q"
  protein stability index: 4.03
- mutation_id: "L4F"
  protein stability index: 3.9
- mutation_id: "I22W"
  protein stability index: 3.68
- mutation_id: "K8E"
  protein stability index: 4.42
- mutation_id: "K8A"
  protein stability index: 4.1
- mutation_id: "K24G"
  protein stability index: 3.76
- mutation_id: "V19G"
  protein stability index: 3.89
- mutation_id: "P16I"
  protein stability index: 3.67
- mutation_id: "P16R"
  protein stability index: 3.96
- mutation_id: "N14A"
  protein stability index: 4.25
- mutation_id: "H20K"
  protein stability index: 4.38
- mutation_id: "D15G"
  protein stability index: 3.67
- mutation_id: "G9F"
  protein stability index: 3.19
- mutation_id: "S17G"
  protein stability index: 4.21
- mutation_id: "V19S"
  protein stability index: 4.47
- mutation_id: "K3L"
  protein stability index: 2.72
- mutation_id: "V2I"
  protein stability index: 4.18
- mutation_id: "C18R"
  protein stability index: 4.08
- mutation_id: "P16E"
  protein stability index: 4.18
- mutation_id: "S6Q"
  protein stability index: 4.26
- mutation_id: "P21W"
  protein stability index: 3.13
- mutation_id: "C18M"
  protein stability index: 4.19
- mutation_id: "D13Q"
  protein stability index: 3.9
- mutation_id: "K24H"
  protein stability index: 4.11
- mutation_id: "N7C"
  protein stability index: 3.64
- mutation_id: "S17Q"
  protein stability index: 4.18
- mutation_id: "S6W"
  protein stability index: 2.86
- mutation_id: "S17C"
  protein stability index: 3.53
- mutation_id: "N7A"
  protein stability index: 4.02
- mutation_id: "P21N"
  protein stability index: 3.61
- mutation_id: "S6E"
  protein stability index: 3.85
- mutation_id: "C18D"
  protein stability index: 4.46
- mutation_id: "T10Q"
  protein stability index: 4.51
- mutation_id: "L4K"
  protein stability index: 4.43
- mutation_id: "T10N"
  protein stability index: 4.2
- mutation_id: "R1A"
  protein stability index: 4.57
- mutation_id: "T12R"
  protein stability index: 3.95
- mutation_id: "I23G"
  protein stability index: 4.49
- mutation_id: "N7W"
  protein stability index: 3.1
- mutation_id: "D13R"
  protein stability index: 3.76
- mutation_id: "H20L"
  protein stability index: 3.95
- mutation_id: "I5P"
  protein stability index: 4.8
- mutation_id: "K8D"
  protein stability index: 4.45
- mutation_id: "H20T"
  protein stability index: 4.49
- mutation_id: "R1C"
  protein stability index: 3.93
- mutation_id: "I22Q"
  protein stability index: 4.22
- mutation_id: "L4N"
  protein stability index: 4.48
- mutation_id: "V19W"
  protein stability index: 3.19
- mutation_id: "N14L"
  protein stability index: 3.48
- mutation_id: "D15N"
  protein stability index: 4.06
- mutation_id: "V19Q"
  protein stability index: 4.21
- mutation_id: "E11S"
  protein stability index: 3.55
- mutation_id: "I23E"
  protein stability index: 4.82
- mutation_id: "I22L"
  protein stability index: 4.22
- mutation_id: "E11T"
  protein stability index: 3.82
- mutation_id: "N7V"
  protein stability index: 3.77
- mutation_id: "N7I"
  protein stability index: 3.6
- mutation_id: "D13C"
  protein stability index: 3.21
- mutation_id: "N7Q"
  protein stability index: 4.09
- mutation_id: "L4R"
  protein stability index: 4.25
- mutation_id: "T10R"
  protein stability index: 3.91
- mutation_id: "D15M"
  protein stability index: 3.62
- mutation_id: "V2W"
  protein stability index: 3.61
- mutation_id: "T10A"
  protein stability index: 4.2
